target: CDK8/Cyclin C (Homo sapiens) (UniProt P49336+P24863); assay: Inhibition of recombinant full length His tagged human CDK8/Cyclin C expressed in Baculovirus at 200 nM incubated for 60 mins in presence of ATP by ADP-Glo kinase assay
Would you kindly list inhibition for each of these compounds?
Output spec: scalar in %, unitless text.

Query :: What reported inhibition corresponds to O=C(NCCc1ccccc1)c1cncc(-c2ccc(C(=O)N3CCNCC3)cc2)c1 on CDK8/Cyclin C (Homo sapiens) (UniProt P49336+P24863)?
Result :: 52

Query :: Same lookup for Nc1ncc(-c2ccc(C(=O)N3CCNCC3)cc2)cc1C(=O)Nc1ccccc1 , please.
Result :: 62

Query :: Same lookup for CC(=O)Nc1ccc(NC(=O)c2cc(O)cc(-c3ccc(C(=O)N4CCNCC4)cc3)c2)cc1 , please.
Result :: 45

Query :: Same lookup for O=C(NCc1ccoc1)c1cncc(-c2ccc(C(=O)N3CCNCC3)cc2)c1 , please.
Result :: 61

Query :: Same lookup for O=C(NCc1ccccc1)c1cncc(-c2ccc(C(=O)N3CCNCC3)cc2)c1 , please.
Result :: 62

Query :: Same lookup for COc1cccc(NC(=O)c2cncc(-c3ccc(C(=O)N4CCNCC4)cc3)c2)c1 , please.
Result :: 80

Query :: Same lookup for O=C(Nc1ccccc1)c1cccc(-c2ccc(C(=O)N3CCNCC3)cc2)c1 , please.
Result :: 67

Query :: Same lookup for CCc1ccccc1NC(=O)c1cncc(-c2ccc(C(=O)N3CCNCC3)cc2)c1 , please.
Result :: 85

Query :: Same lookup for O=c1cc(-c2ccccc2)oc2cc(-c3ccoc3)cc(O)c12 , please.
Result :: 29

Query :: Same lookup for CC(=O)Nc1cccc(NC(=O)c2cncc(-c3ccc(C(=O)N4CCNCC4)cc3)c2)c1 , please.
Result :: 65

---

molecular target: CDK8/Cyclin C (Homo sapiens); assay: Inhibition of recombinant full length His tagged human CDK8/Cyclin C expressed in Baculovirus incubated for 60 mins in presence of ATP by ADP-Glo kinase assay
Sequence (P49336 whole entry): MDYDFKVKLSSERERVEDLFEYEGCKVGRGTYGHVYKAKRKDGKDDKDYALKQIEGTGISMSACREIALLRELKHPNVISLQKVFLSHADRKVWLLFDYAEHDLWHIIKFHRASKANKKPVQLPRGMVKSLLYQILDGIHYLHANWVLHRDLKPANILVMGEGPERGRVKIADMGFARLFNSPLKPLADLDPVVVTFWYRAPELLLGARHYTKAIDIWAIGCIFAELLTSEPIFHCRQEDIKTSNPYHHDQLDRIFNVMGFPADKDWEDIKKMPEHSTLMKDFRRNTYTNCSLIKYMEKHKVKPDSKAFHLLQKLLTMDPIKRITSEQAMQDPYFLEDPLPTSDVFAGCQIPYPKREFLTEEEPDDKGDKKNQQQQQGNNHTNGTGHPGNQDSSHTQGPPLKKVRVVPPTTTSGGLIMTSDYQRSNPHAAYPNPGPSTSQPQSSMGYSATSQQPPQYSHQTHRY
Sequence (P24863 whole entry, further chain): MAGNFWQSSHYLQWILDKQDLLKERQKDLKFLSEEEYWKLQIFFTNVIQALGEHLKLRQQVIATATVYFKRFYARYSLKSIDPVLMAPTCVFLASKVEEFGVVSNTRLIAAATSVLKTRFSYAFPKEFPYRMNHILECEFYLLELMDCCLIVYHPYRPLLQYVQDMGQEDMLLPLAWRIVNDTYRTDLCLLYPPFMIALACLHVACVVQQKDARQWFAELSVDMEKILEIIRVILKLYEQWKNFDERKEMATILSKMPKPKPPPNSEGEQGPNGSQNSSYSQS
TEST_READOUT: pIC50
Convention used: pIC50 is expressed as -log10 of the molar concentration.

Query :: May I ask what pIC50 has been recorded for COc1cc(OC)c(-c2cc(O)c3c(=O)cc(-c4ccccc4)oc3c2)c(OC)c1 ?
Result :: 6.69

Query :: Same lookup for O=c1cc(-c2ccccc2)oc2cc(-c3ccccc3)cc(O)c12 , please.
Result :: 6.63

Query :: Same lookup for O=c1cc(-c2ccccc2)oc2cc(-c3cncnc3)cc(O)c12 , please.
Result :: 6.26

Query :: Same lookup for CCc1cccc(NC(=O)c2cncc(-c3ccc(C(=O)N4CCNCC4)cc3)c2)c1 , please.
Result :: 6.98

Query :: Same lookup for O=C(Nc1ccccc1)c1ccc(O)c(-c2ccc(C(=O)N3CCNCC3)cc2)c1 , please.
Result :: 6.67

---

assay: Cmax in Sprague-Dawley rat at 10 mg/kg, po measured for 3 to 1440 mins by HPLC analysis; assay type: ADME, organism-based; conditions: in vivo
TEST_READOUT: Cmax (ng/mL)
Output spec: scalar in ng/mL, unitless text.

Query :: May I ask what Cmax has been recorded for CCc1ccccc1NC(=O)c1cncc(-c2ccc(C(=O)N3CCNCC3)cc2)c1 ?
Result :: 237

---

test: Transcriptional activity of AP-1 in R848-stimulated mouse BMDC cells transfected with pAP1-luc assessed as ratio of AP-1 activity at 5 uM treated for 24 hrs followed by R848 stimulation for 4 hrs by luminescence based microplate reader analysis relative to control; type: functional; details: time 28 hrs
Would you kindly list Ratio for each of these compounds?
Answer with a bare number; do not write a unit.

Query :: May I ask what Ratio has been recorded for O=C(Nc1ccccc1)c1cc(-c2ccc(C(=O)N3CCNCC3)cc2)ccn1 ?
Result :: 2.3

Query :: Same lookup for CC1CCc2nc(N)c(C#N)c(-c3cccnc3)c2C1 (stereo not given) , please.
Result :: 2.5

Query :: Same lookup for O=c1cc(-c2ccccc2)oc2cc(-c3ccc(CN4CCNCC4)cc3)cc(O)c12 , please.
Result :: 1.9

Query :: Same lookup for O=C(Nc1ccccc1)c1cc(O)cc(-c2ccc(C(=O)N3CCNCC3)cc2)c1 , please.
Result :: 1.3

Query :: Same lookup for Nc1ccc(NC(=O)c2cncc(-c3ccc(C(=O)N4CCNCC4)cc3)c2)cc1 , please.
Result :: 1.72
